- Test system: Caco-2 cells
- test summary: Evaluation of intestinal barrier function improvement: TEER reduction suppression in Caco-2 monolayer with inflammatory cytokines (TNFα, IL-1β, IFNγ)
- Type: cell-based, human
- test context: combined use of phenolic compound and gallic acid, each 1 μM
Each entry below carries its reported Synergistic effect (M.V./T.V.).

{"compound": "O=C(OC[C@H]1O[C@@H](OC(=O)c2cc(O)c(O)c(O)c2)[C@H](OC(=O)c2cc(O)c(O)c(O)c2)[C@@H](O)[C@@H]1OC(=O)c1cc(O)c(O)c(O)c1)c1cc(O)c(O)c(O)c1", "Synergistic effect (M.V./T.V.)": 1.4}
{"compound": "O=C(OC[C@H]1O[C@@H](OC(=O)c2cc(O)c(O)c(O)c2)[C@H](O)[C@@H](O)[C@@H]1OC(=O)c1cc(O)c(O)c(O)c1)c1cc(O)c(O)c(O)c1", "Synergistic effect (M.V./T.V.)": 1.7}
{"compound": "O=C1O[C@@H]2C3COC(=O)c4cc(O)c(O)c(O)c4-c4c(cc(O)c(O)c4O)C(=O)O[C@H]2C(OC(=O)c2cc(O)c(O)c4c2C2C1=CC(=O)C(O)(O)[C@@]2(O)O4)[C@H](OC(=O)c1cc(O)c(O)c(O)c1)O3 (stereo partly drawn)", "Synergistic effect (M.V./T.V.)": 2.4}

----------
Listing of entries alongside the reported Synergistic effect (M.V./T.V.).
- Tested on: Caco-2 cells
- test summary: Evaluation of intestinal barrier function improvement: TEER reduction suppression in Caco-2 monolayer with inflammatory cytokines (TNFα, IL-1β, IFNγ)
- Assay type: cell-based, human
- test context: combined use of phenolic compound and gallic acid, each 1 μM

{"molecule": "O=C(OC[C@H]1O[C@@H](OC(=O)c2cc(O)c(O)c(O)c2)[C@H](OC(=O)c2cc(O)c(O)c(O)c2)[C@@H](OC(=O)c2cc(O)c(O)c(O)c2)[C@@H]1OC(=O)c1cc(O)c(O)c(O)c1)c1cc(O)c(O)c(O)c1 [1,2,3,4,6-penta-O-galloyl-β-D-glucose]", "Synergistic effect (M.V./T.V.)": 1.4}
{"molecule": "O=C(O)c1cc(O)c(O)c(O)c1Oc1cc2c(c(O)c1O)-c1c(cc(O)c(O)c1O)C(=O)O[C@@H]1C(COC2=O)O[C@@H](O)C2OC(=O)c3cc(O)c(O)c(O)c3-c3c(cc(O)c(O)c3O)C(=O)OC21 (stereo partly drawn) [Praecoxin A, praecoxin A]", "Synergistic effect (M.V./T.V.)": 1.4}
{"molecule": "O=C(O[C@@H]1O[C@H](CO)[C@@H](O)[C@H](O)[C@H]1O)c1cc(O)c(O)c(O)c1 [β-glucogallin]", "Synergistic effect (M.V./T.V.)": 2.4}
{"molecule": "O=C(OC[C@H]1O[C@@H](OC(=O)c2cc(O)c(O)c(O)c2)[C@H](OC(=O)c2cc(O)c(O)c(O)c2)[C@@H](OC(=O)c2cc(O)c(O)c(O)c2)[C@@H]1O)c1cc(O)c(O)c(O)c1 [1,2,3,6-tetra-O-galloyl-β-D-glucose]", "Synergistic effect (M.V./T.V.)": 1.5}
{"molecule": "O=C1OCC2O[C@@H](O)C3OC(=O)c4cc(O)c(O)c(O)c4-c4c(cc(O)c(O)c4O)C(=O)OC3[C@@H]2OC(=O)c2cc(O)c(O)c(O)c2-c2c1cc(O)c(O)c2O (stereo partly drawn) [Pedunculagin, pedunculagin]", "Synergistic effect (M.V./T.V.)": 1.7}
{"molecule": "O=C(O[C@@H]1O[C@@H]2COC(=O)c3cc(O)c(O)c(O)c3-c3c(cc(O)c(O)c3O)C(=O)O[C@H]([C@H]1O)[C@@H]2O)c1cc(O)c(O)c(O)c1 [Corilagin, corilagin]", "Synergistic effect (M.V./T.V.)": 3.4}
{"molecule": "O=C(OC[C@H]1O[C@@H](O)[C@H](OC(=O)c2cc(O)c(O)c(O)c2)[C@@H](OC(=O)c2cc(O)c(O)c(O)c2)[C@@H]1OC(=O)c1cc(O)c(O)c(O)c1)c1cc(O)c(O)c(O)c1 [2,3,4,6-tetra-O-galloyl-β-D-glucose]", "Synergistic effect (M.V./T.V.)": 2.0}
{"molecule": "O=C(O[C@@H]1COC(=O)c2cc(O)c(O)c(O)c2-c2c(cc(O)c(O)c2O)C(=O)O[C@H]1[C@@H]1OC(=O)c2cc(O)c(O)c(O)c2-c2c(O)c(O)c(O)c3c2C(=O)O[C@H]1[C@@H]3O)c1cc(O)c(O)c(O)c1 [Casuarinin, casuarinin]", "Synergistic effect (M.V./T.V.)": 1.4}
{"molecule": "O=C(OC1C(OC(=O)c2cc(O)c(O)c(O)c2)[C@H](O)OC2COC(=O)c3cc(O)c(O)c(O)c3-c3c(cc(O)c(O)c3O)C(=O)O[C@H]21)c1cc(O)c(O)c(O)c1 (stereo partly drawn) [Tellimagrandin I, tellimagrandin I]", "Synergistic effect (M.V./T.V.)": 1.6}
